Task for the reader: assign each of the following compounds its reported pIC50.
Target: human KEAP1 (N-term, residues 321-609) (Homo sapiens, UniProt Q14145)
Construct: human KEAP1 (N-term, residues 321-609)
Sequence (Q14145 321-609): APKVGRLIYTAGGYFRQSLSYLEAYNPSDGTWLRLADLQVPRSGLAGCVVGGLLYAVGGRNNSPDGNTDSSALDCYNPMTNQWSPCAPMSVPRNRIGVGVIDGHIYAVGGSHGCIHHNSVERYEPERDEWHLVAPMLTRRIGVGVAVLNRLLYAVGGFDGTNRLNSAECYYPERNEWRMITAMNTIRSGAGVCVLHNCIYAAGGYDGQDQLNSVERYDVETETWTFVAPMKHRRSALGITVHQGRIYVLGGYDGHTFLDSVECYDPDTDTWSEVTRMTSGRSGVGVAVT
Test: KEAP1 Kelch Fluorescence Polarization (FP) Assay
Conditions: inhibition of Kelch domain-NRF2 interaction; 2 nM FITC-labelled NRF2 peptide, 25 nM KEAP1, 1 h room temperature; compounds below 10 nM cannot be differentiated
FYI, pIC50 means -log10 of a concentration in mol per litre.

Query block: # lookup: pIC50 of CNC(=O)[C@@]1(C)CCC[C@H]1C(=O)N1CCc2c(Cl)ccc(OCc3nnn(C)c3C(F)F)c2[C@H]1CN1CCCC1=O [Example 85]
Result block: 8.11

Query block: # lookup: pIC50 of CNC(=O)[C@@]1(C)CCC[C@H]1C(=O)N1CCc2c(Cl)ccc(OCc3nnn(C)c3C(F)F)c2[C@H]1CN1CC2(CC2)CC1=O [Example 94]
Result block: 7.89

Query block: # lookup: pIC50 of CNC(=O)N1CCC[C@H]1C(=O)N1CCc2c(Cl)ccc(OCc3cn(C)nn3)c2[C@H]1CN1CCCC1=O [Example 89]
Result block: 7.72

Query block: # lookup: pIC50 of O=C(NCC(F)(F)CO)[C@H]1CCCC[C@H]1C(=O)N1CCc2c(Cl)ccc(OCc3noc4ccccc34)c2[C@H]1CN1CCCC1=O [Example 78]
Result block: 6.96

Query block: # lookup: pIC50 of CNC(=O)[C@H]1CCCCN1C(=O)N1CCc2cccc(O[C@H]3CCN(C(=O)c4cncs4)C3)c2[C@H]1CN1C(=O)c2ccccc2C1=O [Example 48]
Result block: 6.14

Query block: # lookup: pIC50 of CCCNC(=O)[C@H]1CCCC[C@H]1C(=O)N1CCc2cccc(O[C@H]3CCN(C(=O)c4cncs4)C3)c2[C@H]1CN1C(=O)c2ccccc2C1=O [Example 29]
Result block: 6.78
